# Test system: Jurkat
# Assay Procedure: Induction of apoptosis in human Jurkat cells at 5 uM by annexin V/propidium iodide assay
# Type: functional, cell-based
The source made the active and inactive calls. No cut-off for these calls is given here.
Outcome codes: true (active), false (inactive)

- Compound: "CCOc1c(Br)cc(C2C(C#N)=C(N)Oc3cc(C)n(C)c(=O)c32)cc1OC (stereo not given)"
  Group Label: "true"
- Compound: "COc1cc(C2C(C#N)=C(N)Oc3cc(C)n(C)c(=O)c32)cc(Br)c1O (stereo not given)"
  Group Label: "true"
- Compound: "COc1ccc(CCn2c(C)cc3c(c2=O)C(c2cc(OC)c(OC)c(OC)c2)C(C#N)=C(N)O3)cc1OC (stereo not given)"
  Group Label: "false"
- Compound: "Cc1cc2c(c(=O)n1C)C(c1ccc(Cl)c(Cl)c1)C(C#N)=C(N)O2 (stereo not given)"
  Group Label: "false"
- Compound: "Cc1cc2c(c(=O)n1C)C(c1ccc(F)c(Br)c1)C(C#N)=C(N)O2 (stereo not given)"
  Group Label: "true"
- Compound: "COc1cc(C2C(C#N)=C(N)Oc3cc(C)n(C)c(=O)c32)cc(Br)c1OC (stereo not given)"
  Group Label: "true"
- Compound: "Cc1cc2c(c(=O)n1C)C(c1cccc(Br)c1)C(C#N)=C(N)O2 (stereo not given)"
  Group Label: "true"
- Compound: "COc1cc(C2C(C#N)=C(N)Oc3cc(C)n(C)c(=O)c32)cc(Br)c1OC(C)=O (stereo not given)"
  Group Label: "true"
- Compound: "Cc1cc2c(c(=O)n1C)C(c1ccc(N(C)C)c(Br)c1)C(C#N)=C(N)O2 (stereo not given)"
  Group Label: "true"
- Compound: "Cc1cc2c(c(=O)n1C)C(c1ccc(C(C)C)cc1)C(C#N)=C(N)O2 (stereo not given)"
  Group Label: "false"
